Assay: yeast display, Sf9 membrane polyspecificity reagent, FACS + sequencing; frameworks hold sequencing errors
Experimental Readout: polyreactivity (PSR sort gate)

Reference set (4 entries):
[[record]]
sequence = "QVQLVESGGGLVQAGGSLRLSCAASGYTFSHYAMGWYRQAPGKERELVAGITWSGGSTYYADSVKGRFTISRDNAKNTVYLQMNSLKPEDTSVYYCAAKYYWYYSYSGIPLFDYWGHGTQVTVSS"
experimental_readout = "polyreactivity (PSR sort gate)"
result = "low polyreactivity"

[[record]]
sequence = "QVQLVESGGGLVQAGGSLRLSCAASGFTFQYYAMGWYRQAPGKERELVPSISWSGGSTYYADSVKGRFTISRDHAKNTVYFQMNSLKPEDTAVYYCADSVTYLFCSARFSAYGYWGQGTQVTVSS"
experimental_readout = "polyreactivity (PSR sort gate)"
result = "high polyreactivity"

[[record]]
sequence = "QVQLVESGGGLVQAGGSLRLSCAASGSTFTQNTMGWYRQAPGKERELVAAISWSGTRTYYADSVKGRFTISRDNAKNTVYLQMNSLKPEDTAVYYCAARTHVPAEYDYWGQGTQVTVSS"
experimental_readout = "polyreactivity (PSR sort gate)"
result = "high polyreactivity"

[[record]]
sequence = "QVQLVESGGGLVQAGGSLRLSCAASGRTFYSYAMGWYRQAPGKEREWVATITNGDTTNYADSVKGRFTISRDNAKNTVYLQMNSLKPEDTAVYYCAKDISPGYDEYDYWGQGTQVTVSS"
experimental_readout = "polyreactivity (PSR sort gate)"
result = "low polyreactivity"


Kindly review the next sequence as well.
// field: polyreactivity (PSR sort gate); key: QVQLVESGGGLVQAGGSILLSCAASGSIYGTNTMGWYRQAPGKEREFVAVITGSTTSTYYADSVKGLFTISRDNAKNTVYLQMNSLKPEDTAVYYCATDYWWDLFEYDYWGQGTQVTVSS ; value = high polyreactivity

* * *

Assay: yeast display, Sf9 membrane polyspecificity reagent, FACS + sequencing; frameworks hold sequencing errors
Experimental Readout: polyreactivity (PSR sort gate)

Reference set (4 entries):
[[record]]
sequence = "QVQLVESGGGLVQAGGSLRLSCAASGRIFDDNTMGWSRQAPGKERELVAVITSGGSTNYADSVKGRFTISRDNAKNTVYLQMNSLKQEDTAVYYCATEPGGYRFADRPFQYGYWGQGTQVTVSS"
result = "low polyreactivity"

[[record]]
sequence = "QVQLVESGGGLVQAGGSLRLSCAASGRMFHIYAMGWYRQAPGKERELVAGITTSGGSTYYADSVKGRFTISRDNAKNTVYLQMNSLKPEDTSVDYCARDGLWWCGLTKRWWEFYYWGQGTQVTVSS"
result = "low polyreactivity"

[[record]]
sequence = "QVQLVESGGGLFQAGGSLRLSCAASGSIFRAYAMVWYRQAPGKERELVAAITRGGSTNYADSVKGRFTISRDNAKNTVYLQMNSLKPEDTAVYYCAAQNYWYYPRRFDYWGQGTQVTVSS"
result = "high polyreactivity"

[[record]]
sequence = "QVQLVESGGGLVQAGGSIRLSCAASGRTFGDYAMGWYRQAPGKERELVAAISSSGGRTYYADSVKGRFTISRDNAKNTVYLQMNSLKPEDTAVYYCAAQSKYYQYYSWGQGTQVTVSS"
result = "high polyreactivity"


// field: polyreactivity (PSR sort gate); key: QVQLVESGGGLVQAGGSLRLSCAASGSTFGRYAMGWYRQAPGKERELVAAITRSGGRTYYADSVKGRFTISRDNAKNTVYLQLNSLKPEDTAVYYCAAVGNLYYTSHWQYDYWGQGTQVTVSS ; value = high polyreactivity
